Test system: HepG2 Srxn1-GFP reporter cells (+30 nM CDDO-Me)
Experiment: Srxn1-GFP intensity median modified Z-score relative to plate median; higher = stronger NRF2 / oxidative stress reporter activation, active = hit call of the paper
Conditions: 10 µM; exposure time: 24h
Hit rate of the full screen: of about 2,300 compounds, about 330 (14%) showed activity. The list is a sample of the results.
Given measured Srxn1-GFP intensity median modified Z-score, output yes if it is greater than or equal to 0.5 and no if not.

COc1cc([C@@H]2c3cc4c(cc3[C@H](O)[C@H]3COC(=O)C23)OCO4)cc(OC)c1OC (some centres undefined) [euspeclibcmpd2203]
yes
Cc1cccc(C)c1N=C1NCCCS1
no
CC(=O)O[C@@H]1C2CC[C@@H]3C1(C[C@@H](O)[C@@]1(O)[C@@H](C[C@H](O)C1(C)C)[C@]3(C)O)C[C@@]2(C)O (some centres undefined)
no
C=CCc1ccc2c(c1)OCO2
no
COc1ccc(CN2CCNCC2)c(OC)c1OC
yes

Lookup: Does NCCc1ccccc1 have a reported Srxn1-GFP intensity median modified Z-score of at least 0.5?
Found: no

Lookup: Is it the case that O=C(NC(O)C(Cl)(Cl)Cl)NC(O)C(Cl)(Cl)Cl (centres undefined) has Srxn1-GFP intensity median modified Z-score reaching or exceeding 0.5?
Found: no

Lookup: Is it the case that C[C@]12CC[C@H](O)CC1=CCC1C2CC[C@]2(C)C(=O)CC[C@@H]12 (some centres undefined) has Srxn1-GFP intensity median modified Z-score reaching or exceeding 0.5?
Found: no

Lookup: Tell me whether Srxn1-GFP intensity median modified Z-score is at least 0.5 here: CN1CCc2cc3c(cc2C1O)OCO3 (centres undefined)
Found: no

Lookup: State whether the measured Srxn1-GFP intensity median modified Z-score reaches 0.5, counting equality as reaching it, for COc1cc([C@@H]2c3cc4c(cc3[C@H](O)[C@H]3COC(=O)C23)OCO4)cc(OC)c1OC (some centres undefined) [euspeclibcmpd2060]
Found: yes

Lookup: Has NCC(=O)c1ccccc1 a recorded Srxn1-GFP intensity median modified Z-score greater than or equal to 0.5?
Found: yes

* * *

System: HepG2 Srxn1-GFP reporter cells (+30 nM CDDO-Me)
Assay: Srxn1-GFP intensity median modified Z-score relative to plate median; higher = stronger NRF2 / oxidative stress reporter activation, active = hit call of the paper
Conditions: 10 µM; exposure time: 24h
Hit rate of the full screen: of about 2,300 compounds, about 330 (14%) showed activity. Only a sample is shown.
The threshold is inclusive: Srxn1-GFP intensity median modified Z-score of exactly 0.08 counts as Criterion met; values below receive Criterion not met.

Lookup: Decide: is the reported value of Srxn1-GFP intensity median modified Z-score for CN1CCCCC1c1ccc(-c2cccnc2)nc1 (stereo unspecified) equal to or greater than 0.08?
Found: Criterion not met

Lookup: Decide: is the reported value of Srxn1-GFP intensity median modified Z-score for S=C=NCc1ccccc1 equal to or greater than 0.08?
Found: Criterion met

Lookup: hey, is Srxn1-GFP intensity median modified Z-score for this one >= 0.08? COc1ccc(/C=C/c2cc(O)cc(O)c2)cc1
Found: Criterion met

Lookup: Say whether CCN(C)C(=O)Oc1cccc([C@H](C)N(C)C)c1 shows Srxn1-GFP intensity median modified Z-score of 0.08 or more.
Found: Criterion not met

Lookup: Can CCOC(=O)C1C(C=C(C)C)C1(C)C (stereo unspecified) be said to have Srxn1-GFP intensity median modified Z-score at or above 0.08?
Found: Criterion met
